# target_desc: UniProt:Q13304
# protocol_text: Calcium mobilization functional assay (Fluo-8, FLIPR TETRA) in HEK-293 hGPR17 (Gα-q assay)
# test_settings: antagonism of MDL29,951 (~EC80) induced Ca2+ signal; cell line (HEK-293 hGPR17 or HEK-293 Suchi5 hGPR17) not given
endpoint_name: IC50

Look at this compound and give its reported IC50. O=S(=O)(Nc1ccc2ncccc2c1)c1c[nH]c(-c2ccccc2)c1 500 to 5000 nM

Next: COc1cccc(F)c1-c1cc(S(=O)(=O)Nc2ccc(C#N)cc2F)c[nH]1 < 500 nM

Queued: Cn1ccnc1-c1cc(S(=O)(=O)Nc2cc(F)c(C(F)(F)F)cc2F)c[nH]1 500 to 5000 nM

What would you report for N#Cc1ccc(NS(=O)(=O)c2c[nH]c(C3CCCCC3)c2)c(F)c1 ? 500 to 5000 nM

Then this compound: O=S(=O)(Nc1cnc(Cl)cc1F)c1c[nH]c(-c2ccccc2F)c1 500 to 5000 nM

Same lookup for N#Cc1ccc(NS(=O)(=O)c2c[nH]c(-c3c(F)cccc3F)c2)c(F)c1 , please. < 500 nM

Can you handle N#Cc1ccc(NS(=O)(=O)c2c[nH]c(Cc3ccccc3)c2)c(F)c1 next? 500 to 5000 nM

// repeat for N#CCOc1cc(F)c(NS(=O)(=O)c2c[nH]c(C3CCC3)c2)cc1F and report < 500 nM

Another compound: COc1cccc(Cl)c1-c1cc(S(=O)(=O)Nc2ccc(C#N)cc2F)c[nH]1 500 to 5000 nM

Likewise for Cc1csc(-c2cc(S(=O)(=O)Nc3cc(F)c(C(F)(F)F)cc3F)c[nH]2)n1 ? < 500 nM

Cool, now COc1nc(OCC(F)F)c(F)cc1NS(=O)(=O)c1c[nH]c(-c2ccccc2)c1 < 500 nM

// repeat for COc1cccc(Cc2c[nH]cc2S(=O)(=O)Nc2ccc(C#N)cc2F)c1 and report < 500 nM

# repeat for O=S(=O)(Nc1cc(F)c(Br)cc1F)c1c[nH]c(-c2cccc(Cl)n2)c1 < 500 nM

How about COc1cc(OC(F)F)cnc1NS(=O)(=O)c1c[nH]cc1Cc1ccccc1 ? 5000 to 50000 nM

Please do the same for O=S(=O)(Nc1cc(F)c(F)cc1F)c1c[nH]c(-c2ccc(F)cc2)c1 as well. 5000 to 50000 nM

Also, N#CCOc1cc(F)c(NS(=O)(=O)c2c[nH]cc2-c2cccc(F)c2)cc1F please. 500 to 5000 nM

Same read-out for Cc1ccnc(C)c1NS(=O)(=O)c1c[nH]c(-c2ccccc2)c1 ? 500 to 5000 nM

Okay, and N#Cc1ccc(NS(=O)(=O)c2c[nH]cc2Cc2cccc(OC(F)(F)F)c2)c(F)c1 ? 500 to 5000 nM

----------
# target_desc: human GPR17 receptor (Homo sapiens, UniProt Q13304)
# Sequence (Q13304 whole entry): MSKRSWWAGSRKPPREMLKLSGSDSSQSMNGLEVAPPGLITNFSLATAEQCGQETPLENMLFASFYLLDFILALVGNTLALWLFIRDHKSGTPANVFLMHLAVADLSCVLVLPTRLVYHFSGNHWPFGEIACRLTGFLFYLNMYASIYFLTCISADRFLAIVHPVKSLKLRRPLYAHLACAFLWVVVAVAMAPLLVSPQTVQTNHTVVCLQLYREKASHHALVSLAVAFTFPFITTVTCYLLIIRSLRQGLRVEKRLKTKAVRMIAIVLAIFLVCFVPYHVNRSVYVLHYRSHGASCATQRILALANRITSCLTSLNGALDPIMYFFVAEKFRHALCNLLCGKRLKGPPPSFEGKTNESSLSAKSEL
# protocol_text: Calcium mobilization functional assay (Fluo-8, FLIPR TETRA) in HEK-293 hGPR17 (Gα-q assay)
# test_settings: antagonism of MDL29,951 (~EC80) induced Ca2+ signal; cell line (HEK-293 hGPR17 or HEK-293 Suchi5 hGPR17) not given
endpoint_name: IC50

So what does the record say about IC50 for O=S(=O)(Nc1nc(F)c(OCCF)cc1F)c1c[nH]c(-c2ccccc2)c1 ? < 500 nM

What do you have for Cc1nc(-c2cc(S(=O)(=O)Nc3cc(F)c(C(F)(F)F)cc3F)c[nH]2)cs1 ? 500 to 5000 nM

Please do the same for N#Cc1ccc(NS(=O)(=O)c2c[nH]cc2Cc2ccncc2)c(F)c1 as well. 500 to 5000 nM

Also check O=S(=O)(Nc1cc(F)c(Br)cc1F)c1c[nH]c(-c2cc(Cl)ccc2F)c1 500 to 5000 nM

Moving on to the next molecule: O=S(=O)(Nc1ccc(C(F)(F)F)cn1)c1c[nH]c(-c2ccccc2)c1 5000 to 50000 nM

Another molecule to look at: COc1cc(C(F)(F)F)cnc1NS(=O)(=O)c1c[nH]c(-c2ccccc2)c1 500 to 5000 nM

Follow-up entry: COc1nc(C(F)(F)F)ccc1NS(=O)(=O)c1c[nH]c(-c2ccccc2)c1 500 to 5000 nM

What about this molecule? N#Cc1ccc(NS(=O)(=O)c2c[nH]cc2Cc2ccc(C(F)(F)F)cc2)c(F)c1 5000 to 50000 nM

Same read-out for Cc1ccc(-c2cc(S(=O)(=O)Nc3ccc(C#N)cc3F)c[nH]2)nc1 ? 5000 to 50000 nM

Also need C#Cc1cc(F)c(NS(=O)(=O)c2c[nH]c(-c3ccccn3)c2)cc1F , thanks. 500 to 5000 nM

Here is the next molecule: N#Cc1ccc(NS(=O)(=O)c2c[nH]c(-c3cccc(Cl)n3)c2)c(F)c1 < 500 nM

Thanks! And Cc1nc(-c2cc(S(=O)(=O)Nc3ccc(C#N)cc3F)c[nH]2)ccc1F ? 500 to 5000 nM

What about O=S(=O)(Nc1cc(F)c(C(F)(F)F)cc1F)c1c[nH]cc1Cc1cccc(OC(F)F)c1 ? 500 to 5000 nM

Here is the next molecule: N#Cc1cc(F)c(NS(=O)(=O)c2c[nH]c(-c3cnsc3)c2)cc1F 500 to 5000 nM

Continue with O=S(=O)(Nc1cc(F)c(C(F)(F)F)cc1F)c1c[nH]c(-c2cnccc2Cl)c1 < 500 nM

Try this molecule next: N#Cc1cccc(-c2cc(S(=O)(=O)Nc3cc(F)c(C(F)(F)F)cc3F)c[nH]2)c1F 500 to 5000 nM

Also need COc1cc(CC#N)cnc1NS(=O)(=O)c1c[nH]c(-c2ccccc2)c1 , thanks. < 500 nM

Can you handle COc1nccc(F)c1-c1cc(S(=O)(=O)Nc2cc(F)c(C(F)(F)F)cc2F)c[nH]1 next? < 500 nM

And then N#Cc1ccc(NS(=O)(=O)c2c[nH]c(-c3cc(Cl)c(F)cc3F)c2)c(F)c1 , what is it? 500 to 5000 nM

Repeat with O=S(=O)(Nc1cc(F)c(C(F)(F)F)cc1F)c1c[nH]c(-c2cccnn2)c1 < 500 nM

Cool, now COc1sccc1-c1cc(S(=O)(=O)Nc2cc(F)c(C(F)(F)F)cc2F)c[nH]1 < 500 nM

Same for Cc1ccnc(-c2cc(S(=O)(=O)Nc3cc(F)c(C(F)(F)F)cc3F)c[nH]2)c1 500 to 5000 nM

Try the molecule Cc1ccc(-c2c[nH]cc2S(=O)(=O)Nc2ccc(C#N)cc2F)s1 < 500 nM

Continue with O=S(=O)(Nc1cc(F)c(Br)cc1F)c1c[nH]c(-c2ccc(F)cc2)c1 500 to 5000 nM

Same question for O=S(=O)(Nc1cc(F)c(C(F)(F)F)cc1F)c1c[nH]c(-c2ccc(Cl)cn2)c1 please. 5000 to 50000 nM

Same thing, different molecule: O=S(=O)(Nc1ncc(OCC(F)F)cc1F)c1c[nH]c(-c2ccccc2)c1 500 to 5000 nM

Also O=S(=O)(Nc1cc(F)c(OC(F)F)cc1F)c1c[nH]c(-c2cscn2)c1 ? < 500 nM

Same question for O=S(=O)(Nc1cccc2nsnc12)c1c[nH]c(-c2ccccc2F)c1 please. < 500 nM

Would you kindly repeat that for N#Cc1ccc(NS(=O)(=O)c2c[nH]cc2-c2ccccn2)c(F)c1 ? 500 to 5000 nM

Moving on to the next molecule: O=S(=O)(Nc1cc(F)c(C(F)(F)F)cc1F)c1c[nH]cc1Cc1cccc(C2CC2)c1 5000 to 50000 nM

Also need O=S(=O)(Nc1ccc(C(F)(F)F)nc1)c1c[nH]c(-c2ccccc2)c1 , thanks. 500 to 5000 nM

Field entry: N#Cc1ccc(NS(=O)(=O)c2c[nH]cc2Cc2ccccc2F)c(F)c1 500 to 5000 nM

Next: N#Cc1ccc(NS(=O)(=O)c2c[nH]c(-c3cccc4ccccc34)c2)c(F)c1 500 to 5000 nM

Moving on to the next molecule: O=S(=O)(Nc1cc(F)c(OC(F)F)cc1F)c1c[nH]c(-c2ccsc2)c1 < 500 nM

Same lookup for O=S(=O)(Nc1ncc(C(F)(F)F)cc1F)c1c[nH]c(-c2ccccc2F)c1 , please. 500 to 5000 nM

----------
# target_desc: human GPR17 receptor (Homo sapiens, UniProt Q13304)
# protocol_text: Calcium mobilization functional assay (Fluo-8, FLIPR TETRA) in HEK-293 hGPR17 (Gα-q assay)
# test_settings: antagonism of MDL29,951 (~EC80) induced Ca2+ signal; cell line (HEK-293 hGPR17 or HEK-293 Suchi5 hGPR17) not given
Assignment: determine reported IC50 for the given compounds.

Which value of IC50 has been reported for O=S(=O)(Nc1cc(F)c(C(F)(F)F)cc1F)c1c[nH]c(C2CCC(F)(F)C2)c1 (stereo not drawn) [Cpd 621] in the records? 0.5 to 5 µM

COc1cccc(-c2cc(S(=O)(=O)Nc3ccc(C#N)cc3F)c[nH]2)c1C [Cpd 283] , same question. 5 to 50 µM

What about this compound? O=S(=O)(Nc1cc(F)c(OC(F)F)cc1F)c1c[nH]c(-c2cccc3cccnc23)c1 [Cpd 552] 0.5 to 5 µM

Input Cc1cccc(-c2cc(S(=O)(=O)Nc3ccc(C#N)cc3F)c[nH]2)c1F [Cpd 042] < 0.5 µM

Now the compound O=S(=O)(Nc1ncc(Cl)cc1F)c1c[nH]c(-c2ccccc2F)c1 [Cpd 048] 0.5 to 5 µM

Try this compound too: N#Cc1ccc(NS(=O)(=O)c2c[nH]cc2-c2ccc(F)cc2)c(F)c1 [Cpd 217] 5 to 50 µM

Here is the next compound: O=S(=O)(Nc1cc(F)c(C(F)(F)F)cc1F)c1c[nH]c(-c2ccco2)c1 [Cpd 275] < 0.5 µM

Check N#Cc1ccc(NS(=O)(=O)c2c[nH]cc2-c2cccc(C3CC3)c2)c(F)c1 [Cpd 402] too. 5 to 50 µM

Moving on to N#Cc1ccc(NS(=O)(=O)c2c[nH]c(-c3ncccc3Br)c2)c(F)c1 [Cpd 350] < 0.5 µM

Could you do the same for COc1ccnc(-c2cc(S(=O)(=O)Nc3cc(F)c(C(F)(F)F)cc3F)c[nH]2)c1 [Cpd 305] , please? 0.5 to 5 µM

Another compound to check: N#Cc1ccc(NS(=O)(=O)c2c[nH]cc2-c2cccc3ccccc23)c(F)c1 [Cpd 381] 5 to 50 µM

Further, for O=S(=O)(Nc1ccc(C(F)(F)F)cc1F)c1c[nH]c(-c2ccccc2F)c1 [Cpd 055] ? 0.5 to 5 µM

Also N#Cc1ccc(NS(=O)(=O)c2c[nH]c(-c3ccccc3)c2)c(F)c1Cl [Cpd 312] ? 0.5 to 5 µM

And for N#Cc1cc(F)c(NS(=O)(=O)c2c[nH]cc2Cc2cccc(F)c2)cc1F [Cpd 585] ? < 0.5 µM

Moving on to COCc1ccc(F)c(-c2cc(S(=O)(=O)Nc3cc(F)c(C(F)(F)F)cc3F)c[nH]2)c1 [Cpd 235] 0.5 to 5 µM

Moving on to N#Cc1ccc(NS(=O)(=O)c2c[nH]c(-c3cccc4c3OCC4)c2)c(F)c1 [Cpd 443] < 0.5 µM

Another compound to look at: Cc1cc(F)c(NS(=O)(=O)c2c[nH]c(-c3ccccc3F)c2)cc1F [Cpd 075] < 0.5 µM

Next compound up: O=S(=O)(Nc1cc(F)c(F)cc1F)c1c[nH]c(-c2ccccc2F)c1 [Cpd 047] 0.5 to 5 µM

Entry N#CCOc1cc(F)c(NS(=O)(=O)c2c[nH]c(-c3ccccc3Cl)c2)cc1F [Cpd 459] please < 0.5 µM

Entry N#Cc1ccc(NS(=O)(=O)c2c[nH]cc2-c2ccccc2F)c(F)c1 [Cpd 231] please 0.5 to 5 µM

Let us now turn to O=S(=O)(Nc1cc(F)c(C(F)(F)F)cc1F)c1c[nH]cc1-c1cccc(F)c1 [Cpd 364] 0.5 to 5 µM

Continue with Cc1cc(C#N)ccc1NS(=O)(=O)c1c[nH]c(-c2ccccc2)c1 [Cpd 029] 5 to 50 µM

Field entry: N#Cc1cc(F)c(NS(=O)(=O)c2c[nH]c(-c3ccccc3)c2)s1 [Cpd 601] 0.5 to 5 µM

What about this compound? COc1cc(C#N)ccc1NS(=O)(=O)c1c[nH]cc1Cc1ccccc1 [Cpd 161] 5 to 50 µM

Also O=S(=O)(Nc1cc(F)c(OC(F)F)cc1F)c1c[nH]cc1Cc1cccs1 [Cpd 452] ? < 0.5 µM

Also N#CCc1cnc(NS(=O)(=O)c2c[nH]c(-c3ccccc3)c2)c(F)c1 [Cpd 169] , if possible. 5 to 50 µM

One more compound: Cc1cc(-c2cc(S(=O)(=O)Nc3ccc(C#N)cc3F)c[nH]2)ccc1F [Cpd 269] < 0.5 µM

Next: O=S(=O)(Nc1cccc(F)c1F)c1c[nH]c(-c2ccccc2F)c1 [Cpd 056] 5 to 50 µM

Input N#Cc1cccc(-c2cc(S(=O)(=O)Nc3cc(F)c(Br)cc3F)c[nH]2)c1 [Cpd 541] < 0.5 µM

Another compound to look at: N#Cc1ccc(NS(=O)(=O)c2c[nH]c(-c3nccs3)c2)c(F)c1 [Cpd 610] < 0.5 µM

Where do these numbers come from? They come from patent US20240299385A1.
